# assayNotes: NCI Yeast Anticancer Drug Screen. Data for the bub3 strain (AID 167)
# conditionInfo: S. cerevisiae bub3 mutant strain, at 50.0 µM, stronger effect = higher value
This is part of a sample that, as a whole, favours compounds with a hit. Of some 79,000 tested, about 15% had one in any assay.
growth inhibition reference
Enter your answer as a number in %; do not include the unit.

Recorded growth inhibition, per entry:
* CSC[C@H](NC(=O)COc1cccc2cnccc12)C(=O)NC(Cc1ccccc1)C(O)C(=O)N1CSC[C@H]1C(=O)NC(C)(C)C (some centres undefined) | 2.3
* C[N+](C)=c1ccc2nc3c(cc(Nc4ccccc4)c4ccccc43)oc-2c1 | 38
* O=[N+]([O-])c1ccc(CO)cc1 | 22.1

stdin: Read off the recorded growth inhibition for C[C@@H](c1ccccc1)[C@@H](C(=O)O)c1ccccc1
stdout: -5.65

stdin: Read off the recorded growth inhibition for O=C(CN1CCNCC1)N1CCOCC1
stdout: -16.7

stdin: Read off the recorded growth inhibition for CCC(C#N)(CC)c1ccccc1
stdout: -3.2

---

growth inhibition reference
# assayNotes: NCI Yeast Anticancer Drug Screen. Data for the mlh1 rad18 strain (AID 175)
# conditionInfo: S. cerevisiae mlh1 rad18 strain growth inhibition; at 50.0 µM; stronger effect = higher value
About 79,000 compounds went through this panel and 15% of them were active in at least one assay; those are over-represented in the sample as a whole.
Enter your answer as a number in %; do not include the unit.

- O=[N+]([O-])c1cccc2nsnc12: 43.6
- CCCCCCCCCCCCCCCCC1CC(=O)OC1=O (stereo not drawn): 4.55
- Nc1ccc(C(=O)c2ccc(N)c(Br)c2)cc1Br: 4.05
- CC(C)=C(NC(=O)c1ccccc1)C(=O)O: 12.9
- CCCCCCCCCCC1CO1 (stereo not drawn): -8.05
- CC(=O)C1CCCCC1: 16.8
- COC(=O)Nc1nc2ccc(C(=O)c3ccc(F)cc3)cc2[nH]1: -43.9
- CCCCCCCCCCC(C)Br (stereo not drawn): 1.75

stdin: Read off the recorded growth inhibition for COC1=CC(=O)c2nc(Cl)ccc2C1=O
stdout: 24.6

stdin: Read off the recorded growth inhibition for CCCCC1C(=O)N(c2ccccc2)N(c2ccccc2)C1=O
stdout: -19.1

stdin: Read off the recorded growth inhibition for CCOc1ccc(Br)cc1/C=N\N=C\c1cc(Br)ccc1OCC
stdout: -10.3

---

# assayNotes: NCI Yeast Anticancer Drug Screen. Data for the cln2 rad14 strain (AID 165);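 also: 0% = growth equal to vehicle treated cultures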
# conditionInfo: S. cerevisiae cln2 rad14 strain, at 50.0 µM, stronger effect = higher value
Compounds without any hit were thinned out: in the full panel of roughly 79,000, 15% have a hit.
reportedEndpoint: growth inhibition (%)
Enter your answer as a number in %; do not include the unit.

Recorded growth inhibition, per entry:
* c1ccc(/C(=N\N=C(/c2ccccc2)c2cccs2)c2cccs2)cc1 | -2.8
* CSc1[nH]c(=O)ncc1F | -4.15
* COc1cc(C(N)=O)cc(OC)c1OC | 4.9
* CN(c1ccccc1)c1ncnc2c1ncn2C | -4.7

stdin: Read off the recorded growth inhibition for COc1ccc(/C(C#N)=C2C=C/C(=N/O)c3ccccc3\2)cc1
stdout: -22.2

stdin: Read off the recorded growth inhibition for O=S(=O)(O)CC(O)CN1CCN(CCO)CC1 (stereo not drawn)
stdout: 5.45

stdin: Read off the recorded growth inhibition for CC(=O)c1sc2c(c1OC(=O)c1ccc(Cl)cc1Cl)c(=O)n(-c1ccccc1)c(=S)n2-c1ccccc1
stdout: -5.65

stdin: Read off the recorded growth inhibition for Sc1ccc(Nc2c3ccccc3nc3ccccc23)cc1
stdout: 7.3

stdin: Read off the recorded growth inhibition for Nc1nc2c(c(-c3nc(N)nc4c3CCc3ccccc3-4)n1)CCc1ccccc1-2
stdout: 3.05

stdin: Read off the recorded growth inhibition for c1ncc2[nH]cnc2n1
stdout: -69.2

---

growth inhibition reference
# assayNotes: NCI Yeast Anticancer Drug Screen. Data for the cln2 rad14 strain (AID 165);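 also: 0% = growth equal to vehicle treated cultures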
# conditionInfo: S. cerevisiae cln2 rad14 strain, at 50.0 µM, stronger effect = higher value
# Protocol: Growth inhibition of yeast strains with defined genetic alterations is measured as a screen for potential anti-cancer activity. Selected strains with alterations in DNA damage repair or cell cycle control were exposed to compounds and growth inhibition was measured relative to vehicle treated controls. The strain used in this assay is cln2 rad14
The panel holds about 79,000 compounds, 15% with a hit somewhere; the sample as a whole holds those more often.
Enter your answer as a number in %; do not include the unit.

* CC(=O)C1CCCCC1 | 11.7
* CCOC(=O)c1coc(C(=O)OCC)c1C(=O)OCC | -3.05
* NNc1ccccc1C(=O)O | -4.15

stdin: Read off the recorded growth inhibition for CNC(=O)c1ccccc1CC1(O)c2ccccc2Oc2ccccc21
stdout: 0.7

stdin: Read off the recorded growth inhibition for Cc1cc2nc(CC(=O)c3cccc([N+](=O)[O-])c3)c(=O)[nH]c2cc1C
stdout: 20.5

---

# assayNotes: NCI Yeast Anticancer Drug Screen. Data for the mec2-1 strain (AID 157)
# conditionInfo: S. cerevisiae mec2-1 strain, at 50.0 µM, stronger effect = higher value
Compounds without any hit were thinned out: in the full panel of roughly 79,000, 15% have a hit. Activity calls are given as the source filed them. No stated cut-off is given here; in the data, active means growth inhibition above about 70%; inactive means the rest.
reportedEndpoint: growth inhibition

Recorded growth inhibition, per entry:
- O=C(CCl)N1CCN(C/C=C/c2ccccc2)CC1: -0.05% (inactive)
- c1ccc2c(N3CCCCC3)ncnc2c1: -1% (inactive)
- COCCCNC(=O)c1nnn2c1nc(N)c1cc(Cl)ccc12: 2.75% (inactive)
- CCOC(=O)c1[nH]c(C)c(C(=O)O)c1C: -26.3% (inactive)

stdin: Read off the recorded growth inhibition for O=C(O)CCC(NC(=O)OCc1ccccc1)C(=O)O (configuration not stated)
stdout: 2.55% (inactive)

stdin: Read off the recorded growth inhibition for COc1ccccc1NC(=O)C1=C(C)NC(C)=C(C(=O)Nc2ccccc2OC)C1c1cccc([N+](=O)[O-])c1
stdout: 23.2% (inactive)

stdin: Read off the recorded growth inhibition for CC1(c2ccccc2)NC(=O)NC1=O (configuration not stated)
stdout: -8.85% (inactive)

stdin: Read off the recorded growth inhibition for CCOC(=O)CSc1c([N+](=O)[O-])ncn1C
stdout: 0.5% (inactive)

stdin: Read off the recorded growth inhibition for CC1(C)S(=O)(=O)OCCOS1(=O)=O
stdout: 16.6% (inactive)

stdin: Read off the recorded growth inhibition for S=C1NCc2cncnc2N1
stdout: -2.05% (inactive)

stdin: Read off the recorded growth inhibition for O=C(O)CCC(=O)OC(C1CO1)C(OC(=O)CCC(=O)O)C1CO1 (configuration not stated)
stdout: -16.5% (inactive)

stdin: Read off the recorded growth inhibition for CCOC(=O)C1=C(Nc2ccc(Br)cc2)C(=O)N(CC)C1
stdout: 1.2% (inactive)

---

# assayNotes: NCI Yeast Anticancer Drug Screen. Data for the mec2-1 strain (AID 157)
# conditionInfo: S. cerevisiae mec2-1 strain, at 50.0 µM
Compounds without any hit were thinned out: in the full panel of roughly 79,000, 15% have a hit. The source made the active and inactive calls. No stated cut-off is given here; in the data, active means growth inhibition above about 70%; inactive means the rest.
Outcome (select one): y = active, n = inactive

• NCC(=O)CCC(=O)O = n
• O=C(NCc1ccco1)Nc1c(Cl)cc(Cl)cc1Cl = n
• CC(=O)NC(N)=S = n
• NC(=S)NN=C1CCCC1 = n

stdin: So what was the verdict on O=C(NCO)c1ccccc1 in this test?
stdout: n

stdin: So what was the verdict on Cc1cc(O)ccc1O in this test?
stdout: n

stdin: So what was the verdict on FC(F)(F)c1ccc2c(c1)N(CCCN1CCN(C3CC3)CC1)c1ccccc1S2 in this test?
stdout: y

stdin: So what was the verdict on O=C(CS)Nc1ccc2ccccc2c1 in this test?
stdout: n

stdin: So what was the verdict on COc1cccc(O)c1O in this test?
stdout: n

stdin: So what was the verdict on CCCC[P+](c1ccccc1)(c1ccccc1)c1ccccc1 in this test?
stdout: n

---

# assayNotes: NCI Yeast Anticancer Drug Screen. Data for the sgs1 mgt1 strain (AID 161);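 also: 0% = growth of cultures given vehicle only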
# conditionInfo: S. cerevisiae sgs1 mgt1 strain, at 50.0 µM, stronger effect = higher value
About 79,000 compounds went through this panel and 15% of them were active in at least one assay; those are over-represented in the sample as a whole.
growth inhibition reference
Enter your answer as a number in %; do not include the unit.

Recorded growth inhibition, per entry:
- O=C(O)c1cccc([N+](=O)[O-])c1O: 8.95
- CC1CCCCN1C(=S)Nc1ccc(S(=O)(=O)N2CCCCC2)cc1 (centres undefined): -5.75
- c1ccc(/C(=N\N=C(/c2ccccc2)c2cccs2)c2cccs2)cc1: 25.7
- NC(=S)CN1CCOCC1: -5.9
- CCOC(=O)C(O)C(O)C(=O)OCC (centres undefined): -29.3
- O=C(CCNNC(=O)c1ccncc1)NCc1ccccc1: 11.9

stdin: Read off the recorded growth inhibition for OC(c1ccccn1)C(O)c1ccccn1 (centres undefined)
stdout: -0.6

stdin: Read off the recorded growth inhibition for O=C1OC[C@H]2[C@H](c3ccc(O)c(O)c3)c3cc(O)c(O)cc3C[C@H]12
stdout: 23.9

stdin: Read off the recorded growth inhibition for CC(C)C1CCCCC1O (centres undefined)
stdout: -11.5

stdin: Read off the recorded growth inhibition for COc1cc2c3c(n(C)c(=O)c2cc1OC)-c1cc2c(cc1C3=O)OCO2
stdout: -1.5

stdin: Read off the recorded growth inhibition for C=C[Si](OC(C)=O)(OC(C)=O)OC(C)=O
stdout: 0.85

stdin: Read off the recorded growth inhibition for CCN(CC)CCNc1ccc(CO)c2sc3ccccc3c(=O)c12
stdout: -10.8

stdin: Read off the recorded growth inhibition for CC12CC3CC1C(C(=O)O2)C3C(=O)O (centres undefined)
stdout: -25.8

stdin: Read off the recorded growth inhibition for CC(C(=O)O)(C1CCCCC1)C1(O)CCCCC1 (centres undefined)
stdout: 39.9

stdin: Read off the recorded growth inhibition for S=c1[nH]ccn1-c1ccccc1Cl
stdout: -17.6

stdin: Read off the recorded growth inhibition for CC1SC(N)=NC1=O (centres undefined)
stdout: 0.25

stdin: Read off the recorded growth inhibition for CN(C)c1ccc2nc3ccc(=N)cc-3sc2c1
stdout: 18.6

stdin: Read off the recorded growth inhibition for CN(C)c1ccc(S(=O)(=O)O)cc1
stdout: 6.65

stdin: Read off the recorded growth inhibition for Clc1ccc(-c2n[nH]c3c2Cc2ccccc2-3)cc1Cl
stdout: 16.4

stdin: Read off the recorded growth inhibition for CC1(C(=O)O)NC(C(=O)O)Cc2c1[nH]c1ccccc21 (centres undefined)
stdout: 3.15

stdin: Read off the recorded growth inhibition for CNc1nc(NC)c2cn[nH]c2n1
stdout: 20.2

stdin: Read off the recorded growth inhibition for Cc1cc2nc(CC(=O)c3cccc([N+](=O)[O-])c3)c(=O)[nH]c2cc1C
stdout: 7.1

Hello, the source for this data is PubChem BioAssay (NCI), in case you need it.
